Quick reference for Plant response rating, Foxtail, Giant among some compounds
- System: foxtail, giant (giant foxtail, Setaria faberii)
- EXPERIMENT: Test A greenhouse herbicide test, pre- and postemergence
- Assay type: in vivo
- CONDITION SET: Postemergence, 500 g ai/ha; visual rating after approx. 10 d, 0 to 100 scale (0 no effect, 100 complete control)
REPORTED METRIC: Plant response rating, Foxtail, Giant

                               smiles_string  experimental_value
 0  Cc1ccc2oc(C)c(-c3c(O)c(C(C)C)nn(C)c3=O)c2c1                   0
 1  COc1nn(C)c(=O)c(-c2c(C)sc3ccc(Cl)cc23)c1OC(C)=O                  60
 2    Cc1nn(C)c(=O)c(-c2ccc(Cl)c3ccccc23)c1O                 100
 3  CC(=O)Oc1c(C)nn(C)c(=O)c1-c1c(C)cc(C)c2ccccc12                  90
 4  Cc1ccc2ccccc2c1-c1c(OS(C)(=O)=O)cnn(C)c1=O                  20
 5  CC(=O)Oc1c(Cl)nn(C)c(=O)c1-c1c(C)sc2ccc(C(F)(F)F)cc12                  50
 6    Cc1nn(C)c(=O)c(-c2cccc3ccc(Br)cc23)c1O                  60
 7  Cc1nn(C)c(=O)c(-c2ccc(Cl)c3ccccc23)c1OC(=O)C(F)(F)F                  80
 8  Cc1ccc2c(-c3c(O)c(C)nn(C)c3=O)c(C)ccc2c1                  10
 9  CCOC(=O)Oc1c(C)nn(C)c(=O)c1-c1c([N+](=O)[O-])ccc2ccccc12                  40
10  CCC(=O)Oc1c(C)nn(C)c(=O)c1-c1ccc(Br)c2ccccc12                  80

====

A collection of compounds and their measured Plant response rating, Blackgrass
- System: blackgrass (Alopecurus myosuroides)
- EXPERIMENT: Test C greenhouse herbicide test, pre- and postemergence
- Assay type: in vivo
- CONDITION SET: Preemergence, 31 g ai/ha; scale 0 to 100, 0 is no effect, 100 is complete control
REPORTED METRIC: Plant response rating, Blackgrass

In [3]: df
Out[3]:
                              smiles_string                    reported_metric  experimental_value
0    CCc1oc2ccc(C)cc2c1-c1c(O)c(C)nn(C)c1=O  Plant response rating, Blackgrass                   0
1       Cc1sc2ccccc2c1-c1c(O)c(Cl)nn(C)c1=O  Plant response rating, Blackgrass                   5
2  CC(=O)Oc1c(Cl)nn(C)c(=O)c1-c1c(C)sc2ccc(C(F)(F)F)cc12  Plant response rating, Blackgrass                   5
3  CCc1sc2c(C)cc(C)cc2c1-c1c(O)c(C)nn(C)c1=O  Plant response rating, Blackgrass                  30
4    Cc1nn(C)c(=O)c(-c2ccc(Br)c3ccccc23)c1O  Plant response rating, Blackgrass                  20
5  Cc1nn(C)c(=O)c(-c2c(C)sc3c(C)cc(Cl)cc23)c1O  Plant response rating, Blackgrass                  50
6  Cc1nn(C)c(=O)c(-c2c(C)sc3ccc(Br)cc23)c1O  Plant response rating, Blackgrass                   5
7       Cc1ccc2ccccc2c1-c1c(O)c(I)nn(C)c1=O  Plant response rating, Blackgrass                  50
8    Cc1cc(C)c2ccccc2c1-c1c(O)c(C)nn(C)c1=O  Plant response rating, Blackgrass                  90
